Kindly supply the reported shrunken log2 fold change values for the records listed here.
# Tested on: Escherichia coli TOP10
# assay_overview: shrunken log2 fold change of peptide-encoding DNA abundance (4.5 h post-induction vs induction); higher = less antimicrobial activity (less host growth inhibition)
# test_settings: time post-induction: 4.5 h; library: site-saturation at positions 5, 18, 19, 20
Give bare numbers.

>  <seq_string>
RRIRGRPPRLPRPRPRPTNDPRP

>  <observed_value>
0.564

$$$$

Please state, for each entry, its recorded shrunken log2 fold change.
1. RRIRLRPPRLPRPRPRPGSCPRP
2. RRIRNRPPRLPRPRPRPAVGPRP

A)
1: 0.0403; 2: 0.543

Please state, for each entry, its recorded shrunken log2 fold change.
1. RRIRGRPPRLPRPRPRPLPHPRP
2. RRIRKRPPRLPRPRPRPILHPRP

A)
0.638
-0.394

Please state, for each entry, its recorded shrunken log2 fold change.
1. RRIRTRPPRLPRPRPRPGPWPRP
2. RRIRMRPPRLPRPRPRPTVLPRP

A)
0.215
0.477

Q) Using the record for RRIRWRPPRLPRPRPRPLHQPRP , state its measured shrunken log2 fold change.
A) 0.0809

----------
# Test system: Escherichia coli TOP10
# assay_overview: shrunken log2 fold change of peptide-encoding DNA abundance (4.5 h post-induction vs induction); higher = less antimicrobial activity (less host growth inhibition)
# test_settings: time post-induction: 4.5 h; library: site-saturation at positions 5, 18, 19, 20
Response field class: string, computed from recorded shrunken log2 fold change by ranges LOW: < -0.3; MEDIUM: ≥ -0.3 and < 0.1; HIGH: ≥ 0.1

Q) Using the reported shrunken log2 fold change, which band applies to RRIRTRPPRLPRPRPRPARQPRP ?
A) HIGH

----------
# System: Escherichia coli TOP10;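 further: peptides expressed intracellularly from a pBAD plasmid library in pooled LB shake-flask culture, induced with 0.3% L-arabinose, DNA abundance read by NGS, three biological replicates, DESeq2 with apeglm shrinkage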
# assay_overview: shrunken log2 fold change of peptide-encoding DNA abundance (4.5 h post-induction vs induction); higher = less antimicrobial activity (less host growth inhibition)
# test_settings: time post-induction: 4.5 h; library: site-saturation at positions 5, 18, 19, 20
criterion met means recorded shrunken log2 fold change is -0.01 or above; criterion not met means it is below -0.01.

Field: example entries. Status: answers known.
>  <seq_string>
RRIRMRPPRLPRPRPRPYSGPRP

>  <group>
criterion met

$$$$
>  <seq_string>
RRIRDRPPRLPRPRPRPSARPRP

>  <group>
criterion met

$$$$
>  <seq_string>
RRIRIRPPRLPRPRPRPIGYPRP

>  <group>
criterion not met

$$$$

Q) Identify whether the reported shrunken log2 fold change of the following sequence is -0.01 or greater: RRIRDRPPRLPRPRPRPIGRPRP
A) criterion met

Q) Identify whether the reported shrunken log2 fold change of the following sequence is -0.01 or greater: RRIRYRPPRLPRPRPRPFMSPRP
A) criterion not met

Q) Identify whether the reported shrunken log2 fold change of the following sequence is -0.01 or greater: RRIRKRPPRLPRPRPRPKKSPRP
A) criterion met

Q) Identify whether the reported shrunken log2 fold change of the following sequence is -0.01 or greater: RRIRWRPPRLPRPRPRPGGPPRP
A) criterion met

Q) Identify whether the reported shrunken log2 fold change of the following sequence is -0.01 or greater: RRIRLRPPRLPRPRPRPAPTPRP
A) criterion met

Q) Identify whether the reported shrunken log2 fold change of the following sequence is -0.01 or greater: RRIRHRPPRLPRPRPRPAFLPRP
A) criterion met

Q) Identify whether the reported shrunken log2 fold change of the following sequence is -0.01 or greater: RRIRMRPPRLPRPRPRPHSLPRP
A) criterion not met

Q) Identify whether the reported shrunken log2 fold change of the following sequence is -0.01 or greater: RRIRFRPPRLPRPRPRPWCNPRP
A) criterion not met

Q) Identify whether the reported shrunken log2 fold change of the following sequence is -0.01 or greater: RRIRQRPPRLPRPRPRPGVLPRP
A) criterion met

Q) Identify whether the reported shrunken log2 fold change of the following sequence is -0.01 or greater: RRIRKRPPRLPRPRPRPISSPRP
A) criterion not met

Q) Identify whether the reported shrunken log2 fold change of the following sequence is -0.01 or greater: RRIRWRPPRLPRPRPRPTVNPRP
A) criterion met

Q) Identify whether the reported shrunken log2 fold change of the following sequence is -0.01 or greater: RRIRARPPRLPRPRPRPPGGPRP
A) criterion met

Q) Identify whether the reported shrunken log2 fold change of the following sequence is -0.01 or greater: RRIRDRPPRLPRPRPRPTIYPRP
A) criterion met

Q) Identify whether the reported shrunken log2 fold change of the following sequence is -0.01 or greater: RRIRRRPPRLPRPRPRPPIPPRP
A) criterion met

Q) Identify whether the reported shrunken log2 fold change of the following sequence is -0.01 or greater: RRIRERPPRLPRPRPRPTGVPRP
A) criterion not met

Q) Identify whether the reported shrunken log2 fold change of the following sequence is -0.01 or greater: RRIRKRPPRLPRPRPRPCVAPRP
A) criterion met

Q) Identify whether the reported shrunken log2 fold change of the following sequence is -0.01 or greater: RRIRMRPPRLPRPRPRPWCVPRP
A) criterion met

Q) Identify whether the reported shrunken log2 fold change of the following sequence is -0.01 or greater: RRIRARPPRLPRPRPRPYNNPRP
A) criterion not met

Q) Identify whether the reported shrunken log2 fold change of the following sequence is -0.01 or greater: RRIRRRPPRLPRPRPRPNHLPRP
A) criterion not met

Provenance of the data: the supplement of paper PMC9112550
